# Tested on: RXF 393 renal
# test.summary: NCI tumour cell line growth inhibition, 48 h
*1 amine or outer side, *2 acyl side, *3 side chain or, on linkers, in order; H or OH if unused. Where a SMILES comes first, the peptide text is derived from it. Bridges are numbered along the chain shown (N, C = ends). [ ]: non-standard residue; d: D form. The star is where a group is joined. Phe(3,5-F2) = N[C@@H](Cc1cc(F)cc(F)c1)C(=O)O; Pro(4R-Me) = C[C@H]1CN[C@H](C(=O)O)C1; aThr = C[C@H](O)[C@H](N)C(=O)O; Pip = O=C(O)[C@@H]1CCCCN1; X10 = Fc1cc(C2CC2)ccc1N*; Abu = CC[C@H](N)C(=O)O; CO = O=C([*:1])[*:2]
Can you tell me TGI for the items I'm about to list?

The reported TGI of the compound "CC(=O)Nc1ccc2c(C3=C(c4cn(C)c5ccccc45)C(=O)NC3=O)cn(C)c2c1" was > 7.02 µM

The reported TGI of the compound Clc1ccc(C2ON=C(c3ccccc3)N2C23CC4CC(CC(C4)C2)C3)c(Cl)c1 (stereo not given) was > 10 µM

The reported TGI of the compound "CO/C(N)=C(\C#N)N=Cc1cccnc1" was > 100 µM

The reported TGI of the compound COC(=O)C1=C(c2cc(OC)c(OC)c(OC)c2)OC(c2ccc3c(c2)OCO3)C1 (stereo not given) was > 100 µM

The reported TGI of the compound "O=Cc1c(Cn2ccnc2)c2cc([N+](=O)[O-])ccc2n1Cc1ccccc1" was > 100 µM

The reported TGI of the compound CC(C1=CC=C2[C@@H]3CCC4CC(N(C)C)CC[C@]4(C)C3CC[C@]12C)N(C)C=O (stereo not given in full) was > 100 µM

The reported TGI of the compound CC1(C(=O)O)CCC(C(=O)O)C(C)(C)O1 (stereo not given) was > 100 µM

The reported TGI of the compound "Cn1c2ccccc2c2ccc3c(c21)C(=O)C=CC3=O" was 5.96 µM

The reported TGI of the compound "COc1cc2c(cc1OCCCCCN1CCN(c3cc(=O)oc4ccccc34)CC1)N=C[C@@H]1CCCN1C2=O" was 0.253 µM

The reported TGI of the compound CC[C@@H]1NC(=O)[C@@H]2CCCCN2C(=O)[C@@H]2CCCN2C(=O)[C@@H](NC(=O)[C@H](Cc2cc(F)cc(F)c2)NC(=O)Nc2ccc(C3CC3)cc2F)[C@H](C)OC(=O)[C@@H]2C[C@@H](C)CN2C1=O ({X10-CO}-[Phe(3,5-F2)][aThr]P[Pip][Abu][Pro(4R-Me)]; ester 2-C) was 2.79 µM

###

# System: MDA-N
# test.summary: NCI tumour cell line growth inhibition, 48 h
outcome.measure: TGI

The reported TGI of the molecule "CN(C)CCCNC(=O)N/N=C\c1cccc2ccccc12" was > 10 µM

The reported TGI of the molecule CC(C)(C)C(=O)CC1(O)C=C(O)C(O)(CC(=O)C(C)(C)C)O1 (stereo not drawn) was > 100 µM

The reported TGI of the molecule "CCn1ncc(Oc2c(Cl)cc(N)cc2Cl)c(Cl)c1=O" was 79.6 µM

###

# Tested on: CAKI-1 renal
# test.summary: NCI tumour cell line growth inhibition, 48 h; in the data active = GI50 below about 0.43 µM; inactive = the rest
I would appreciate it if you answered using one of these outcomes: true (1) for active, false (0) for inactive

Please indicate how the test categorized "COc1cccc2cc(N(C)c3ncnc4ccccc34)ccc12" . true (1)

Please indicate how the test categorized "COc1ccc(-c2c(C#N)c(N)nc3c2COc2ccc(F)cc2-3)cc1OC" . false (0)

Please indicate how the test categorized "COc1cc2c(cc1OCCCNC(=O)/C=C1/C[C@H]3C=Nc4cc(OCc5ccccc5)c(OC)cc4C(=O)N3C1)NC(=O)[C@@H]1CCCN1C2=O" . false (0)

Please indicate how the test categorized "O=C(CNc1c(Cl)cccc1Cl)Nc1ccc(-c2nc3ccccc3s2)cc1" . false (0)
